Target: Purine nucleoside phosphorylase (Homo sapiens, UniProt P00491)
Sequence (P00491 whole entry): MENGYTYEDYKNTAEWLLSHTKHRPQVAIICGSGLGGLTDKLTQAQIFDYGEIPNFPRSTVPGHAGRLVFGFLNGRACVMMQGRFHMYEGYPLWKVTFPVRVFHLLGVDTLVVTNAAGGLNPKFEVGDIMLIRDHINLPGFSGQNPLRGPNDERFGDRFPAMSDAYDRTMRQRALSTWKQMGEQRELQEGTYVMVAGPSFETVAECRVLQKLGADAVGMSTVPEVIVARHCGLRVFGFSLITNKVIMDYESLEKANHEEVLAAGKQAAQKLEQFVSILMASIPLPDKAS
Assay: Inhibition of human PNP activity
pIC50: −log10 of the molar value.
Rule: TRUE for pIC50 not less than 8, FALSE for anything less.

Solved cases (5 shown):
Nc1nc(O)c2[nH]cc(CN(CCO)CCO)c2n1 | TRUE
CCN(CCO)Cc1c[nH]c2c(O)nc(N)nc12 | FALSE
Nc1nc(O)c2[nH]cc(CN3CCC[C@@H]3CO)c2n1 | FALSE
Nc1nc(O)c2[nH]cc(CN3CCC[C@H]3CO)c2n1 | TRUE
COC[C@@H]1CCCN1Cc1c[nH]c2c(=O)[nH]c(N)nc12 | FALSE

Next molecule, please.
Prompt: Hi team, for Nc1nc(O)c2[nH]cc(CNCCO)c2n1 , is the recorded pIC50 at or above 8?
Response: FALSE
